Field: log10 Kd. Provide a value for each of the binders that follow.
# tested target: T1, human CD3e/d (human, UniProt P07766 23-126; P04234 22-105)
# T1 construct: Bought soluble protein; also called hCD3e/d; human CD3/ed (Sino CT038-H2508H)
# T1 sequence (P07766 23-126, chain 1 of 2): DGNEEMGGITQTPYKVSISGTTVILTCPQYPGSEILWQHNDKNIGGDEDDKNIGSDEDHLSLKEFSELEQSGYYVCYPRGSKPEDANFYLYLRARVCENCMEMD
# T1 sequence (P04234 22-105, chain 2 of 2): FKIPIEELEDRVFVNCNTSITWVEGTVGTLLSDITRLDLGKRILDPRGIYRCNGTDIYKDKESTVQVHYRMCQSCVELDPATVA
# assay summary: SPR (Carterra LSA), mAb on chip
Answers are given as log10 of Kd in nM.

Read the entry mAb 201 (antibody, V domains shown, VH and VL only) VH: QVQLVESGGGVVQPGRSLRLSCAASGFTFSGYGMHWVRQAPGKGLEWVAIIYYNGKKEYYADSVKGRFTISRDNSKNTLYLQMNSLRAEDTAVYYCTRGEGYNWFDPWGQGTLVTVSS VL: EIVMTQSPATLSVSPGERATLSCRASQSVSSSLAWYQQKPGQAPRLLIYGASTRATGIPARFSGSGSGTEFTLTISSLQSEDFAVYYCQQYNNWPLTFGGGTKVEIK and write its reported log10 Kd.
1.45

Name the recorded log10 Kd of the binder listed here: mAb 110 (antibody, V domains shown, VH and VL only) VH: QVQLVESGGGVVQPGRSLRLSCAASGFTFRSYGMHWVRQAPGKGLEWVAIIWYNGNKKDYVDSVKGRFTISRDNSKNMLYLQMNSLRAEDTALYYCARGPGYNWFDPWGQGTLVTVSS VL: DIQMTQSPPSLSASVGDRVTITCRASQRISSYLNWYQQRPGKAPKLLIYAASSLQSGVPSRFSGSGSGTDFTLTISSLQPEDFATYYCQQTDSFPLTFGGGTKVEII
1.26

Look up and state reported log10 Kd for mAb 203 (antibody, V domains shown, VH and VL only) VH: QVQLVESGGGVVQPGGSLRLSCAASGFTFRGYGMHWVRQAPGKGLEWVAIIYYNGRKTYYAESVKGRFTISRDNSKNTLSLQMNSLRVEDTAVYYCTAGQGYNWFDPWGQGTLVTVSS VL: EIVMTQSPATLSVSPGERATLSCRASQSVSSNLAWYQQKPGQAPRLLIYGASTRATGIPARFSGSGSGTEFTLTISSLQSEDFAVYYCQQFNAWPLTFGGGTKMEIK
1.23

Write down log10 Kd measured for item mAb 238 (antibody, V domains shown, VH and VL only) VH: EVQLLESGGDLVQPGGSLRLTCAASGFTFRSYAMNWVRQAPGKGLEWVSTISSRGDTTNYADSVKGRFTISRDTSKNTLYLQMDNLRADDTAVYYCSKMFSYYYYYMDVWGKGTTVTVSS VL: SYELTQPLSVSVALGQTARITCGGNNIGSKDVHWYQQKPGQAPVLVIYRDSNRPSGIPERFSGSNSGNTATLTISRAQAGDEADYYCQVWDSSTAVFGGGTQLTAL
1.77

Indicate its recorded log10 Kd; the binder in question is mAb 78 (antibody, V domains shown, VH and VL only) VH: EVQLVESGGGLVQPGGSLRLSCAASGFTFSSYWMSWVRQAPGKGLEWVANIKQDGSEKYYVDSVKGRFTISRDNAKNSLYLQMNSLRAEDTAVYYCARDNSPSFYWYFDLWGRGTLVTVSS VL: DIQMTQSPSTLSASVGDRVTITCRASQSLSRWLAWYQQKPGKAPKLLIYKASSLESGVPSRFSGSGSGTEFTLTISSLQPDDFATYYCQQYYTYSRTFGQGTKVEIK
2.45
